Where these numbers come from: the supplement of paper PMC10567573

B1: DYRK1B (parent)
chain: KKVLNHGYDDDNHDYIVRSGERWL

- Variants of: B1
- protocol.text: protein stability index of a GFP-peptide fusion (GPS, HEK-293T) (PSI 1-6); higher = more stable;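 further: lentivirally expressed fusions sorted by FACS into six bins by GFP to DsRed ratio, PSI derived from sequencing read proportions per bin multiplied by bin number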
- condition.context: c terminus: a fixed tail appended
Give Fulfilled when the value for protein stability index is at least 3. Give Not fulfilled when it is less.

INSERT INTO assay_data (variant_designation, cat) VALUES
  ('D11I', 'Not fulfilled'),
  ('Y8F', 'Fulfilled'),
  ('V3D', 'Fulfilled'),
  ('S19C', 'Not fulfilled'),
  ('R22P', 'Fulfilled'),
  ('N12M', 'Not fulfilled'),
  ('G20P', 'Fulfilled'),
  ('R18G', 'Fulfilled'),
  ('K2I', 'Not fulfilled'),
  ('R22W', 'Not fulfilled'),
  ('I16A', 'Fulfilled'),
  ('N5I', 'Not fulfilled'),
  ('G7A', 'Fulfilled'),
  ('V17E', 'Fulfilled'),
  ('L24K', 'Fulfilled'),
  ('I16E', 'Fulfilled'),
  ('H13C', 'Not fulfilled'),
  ('Y15H', 'Fulfilled'),
  ('D10F', 'Not fulfilled'),
  ('W23S', 'Fulfilled'),
  ('N5C', 'Not fulfilled'),
  ('D10L', 'Not fulfilled'),
  ('D14W', 'Not fulfilled'),
  ('L4T', 'Fulfilled'),
  ('S19L', 'Not fulfilled'),
  ('G20N', 'Fulfilled'),
  ('W23T', 'Fulfilled'),
  ('D14P', 'Not fulfilled'),
  ('D14G', 'Not fulfilled'),
  ('Y8G', 'Fulfilled'),
  ('E21R', 'Not fulfilled'),
  ('H6D', 'Fulfilled'),
  ('V3I', 'Not fulfilled'),
  ('W23D', 'Fulfilled'),
  ('L4E', 'Fulfilled'),
  ('N12H', 'Not fulfilled'),
  ('I16V', 'Fulfilled'),
  ('L4A', 'Fulfilled');
